B1: HDV Ribozyme (parent)
chain: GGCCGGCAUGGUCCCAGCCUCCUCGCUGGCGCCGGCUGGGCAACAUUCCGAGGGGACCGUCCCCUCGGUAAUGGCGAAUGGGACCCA

- Variants of: B1
- Protocol Notes: self-cleavage, relative activity (ratio to wild type); higher = more cleavage; co-transcriptional
I'd appreciate it if you could supply self-cleavage values for the items below.
Give a plain numeric answer without units written out.

// self-cleavage lookup, variant = G17U G50A , result: 0.466

// self-cleavage lookup, variant = C62U U69A , result: 1.24

// self-cleavage lookup, variant = C49U G52C , result: 0.866

// self-cleavage lookup, variant = A78C C84U , result: 0.196

// self-cleavage lookup, variant = C36G G53A , result: 0.0959

// self-cleavage lookup, variant = C7G U23G , result: 0.217

// self-cleavage lookup, variant = G11C G54C , result: 0.291

// self-cleavage lookup, variant = G2U G54A , result: 0.0279

// self-cleavage lookup, variant = C58A U69G , result: 1.04

// self-cleavage lookup, variant = C36G C75U , result: 0.233

// self-cleavage lookup, variant = G54A C64A , result: 0.453

// self-cleavage lookup, variant = G39U U46G , result: 0.222

// self-cleavage lookup, variant = G10C C86G , result: 0.538

// self-cleavage lookup, variant = C49G A77G , result: 0.536

// self-cleavage lookup, variant = U27G A43G , result: 0.302

// self-cleavage lookup, variant = G5A C58U , result: 0.252

// self-cleavage lookup, variant = C64G G67U , result: 0.365

// self-cleavage lookup, variant = C14U U20A , result: 0.145

// self-cleavage lookup, variant = C36G C57G , result: 0.162

// self-cleavage lookup, variant = C58U C64A , result: 0.867

Values compiled from the RNAGym collection of RNA variant scans (doi:10.7554/elife.80360).
